Assay protocol: pH solubility screen in Citric Acid / Dibasic Sodium Phosphate buffers
Type: physicochemical
Run parameters: lower pH of range
Method: pH Solubility. […] Protein was either lyophilized and then resuspended in buffer cocktail mixtures, or concentrated and then spiked into buffer cocktail mixtures at a final protein concentration of 5 to 30 mg/ml. […] Turbidity of proteins was determined by measuring the absorbance of protein solutions at 650 nm. […] The pH range over which select proteins remained greater than 80% soluble as determined by Bradford and the A650 value are listed in Table E31C.
Threshold rule: pH Range where Protein is >80% detected as Soluble and A650 <1 OD: Low greater than or equal to 4 is condition met; below that, condition not met.

Example entries and their recorded answers appear below.
- Molecule: "SEQID-00485: nutritive polypeptide naturally produced in Chickpea, recombinantly expressed in E. coli (protein, listed as Cicer arietinum) MTKTGYINAAFRSSRNNEAYLFINDKYVLLDYAPGTSNDKVLYGPSFVRDGYKSLAKTIFGTYGIDCSFDTEYNEAFIFYENFCARIDYAPHSDKDKIISGPKKIADMFPFFKGTVFENGIDAAFRSTKGKEVYLFKGDKYARIDYLTNRLVQNIKSISDGFPCLRGTIFEAGMDSAFASHKTNEAYLFKGEYYARINFTPGSTNDIMGGVKKTLDYWPSLRGIIPLE"
  Discrete label: "condition met"
- Molecule: "SEQID-00226: nutritive polypeptide (protein, listed as Bos taurus) QLQALQAQLTDTKKKVDDDLGTIENLEEAKKKLLKDVEVLSQRLEEKALAYDKLEKTKTRLQQELDDLLVDLDHQRQIVSNLEKKQKKFDQLLAEEKNIS"
  Discrete label: "condition not met"
- Molecule: "SEQID-00265: nutritive polypeptide (protein, listed as Bos taurus) SEGDRLRVELAEKANKLQNELDNVSTLLEEAEKKGIKFAKDAAGLESQLQDTQELLQEETRQKLNLSSRIRQLEEERSSLQEQQEEEEEARRSLEKQLQALQAQLTDTKKKVDDDLGTIENLEEAKKKLLKDVEVLSQRLEEKALAYDKLEKTKTRLQQELDDLLVDLDHQRQIVSNLEKKQKKFDQLLAEEKNISARYAEERDRAEAEAREKETKALSLARALEEALEAREEAERQNKQLRADMEDLMSSKDDVGKNVHELEKSKRALE"
  Discrete label: "condition met"
- Molecule: "SEQID-00241: nutritive polypeptide (protein, listed as Bos taurus) SELKKDIDDLELTLAKVEKEKHATENKVKNLTEEMAGLDETIAKLTKEKKALQEAHQQTLDDLQAEEDKVNTLTKAKTKLEQQVDDLEGSLEQEKKLRMDLERAKRKLEGDLKLA"
  Discrete label: "condition met"

We now examine a further molecule.
### Prompt Reported pH Range where Protein is >80% detected as Soluble and A650 <1 OD: Low at or above 4? SEQID-00511: protein of the 168 nutritive polypeptide library (protein, Arthrospira platensis C1, protein of the 168 nutritive polypeptide library) MVLFGFGKKKSLPKPEEALPGRDRVMSVPDRHYINGNPLKPPFPEGMEQAVFGLGCFWGAERKFWQQQGVFSTAVGYAGGYTKNPTYEEVCSGMTGHTEVVLVVFDPKVISYTDLLKLFWESHNPTQGMRQGNDTGTQYRSAIYTYSDEQQRLALASRDRYQQALSAASYGEITTEIAPAQEFYYAEAYHQQYLGKNPNGYCGLGGTGVGCPAMTETSV
### Response condition met
